# target under test: T1, human Complement Factor D (CFD), purified from human serum (human, UniProt P00746 26-253)
# T1 construct: serum purified (CompTech A136); also called serum purified CFD; hCFD-Comptech
# T1 sequence (P00746 26-253): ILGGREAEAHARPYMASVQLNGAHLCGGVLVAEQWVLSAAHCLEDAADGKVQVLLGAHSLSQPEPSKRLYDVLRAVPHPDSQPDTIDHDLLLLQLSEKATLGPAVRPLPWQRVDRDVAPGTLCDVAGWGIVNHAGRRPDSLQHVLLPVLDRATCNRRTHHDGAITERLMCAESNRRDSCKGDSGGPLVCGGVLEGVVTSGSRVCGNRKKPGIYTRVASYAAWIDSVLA
# assay info: SPR MX96, mAbs amine-coupled, CFD injected
For each record, check the reported Kd: if it is below 0.5 nM write true (1), else write false (0).

Field: example entries. Status: answers known.
Find out if reported Kd for KCD225 (antibody, V domains shown) VH: QVQLQQSGPELVKPGASVKISCKASGYTFTDYYINWMKQRPGQGLEWIGWIFPGSDSTYYNEKFKGKATLTVDKSSSTAYMLLSSLTSEDSAVYFCARLGYYSHSYYAMDYWGQGTSVTVSS VL: DIQMTQSPASLSVSTGETVTITCRASENIYSNLAWFQQKQGKSPQLLVYAATNLADGVPSRFSGSGSGTQYSLKITSLQSEDFGSYYCQHFWGTPLTFGAGTKLDLK is less than 0.5 nM
false (0)

Find out if reported Kd for KCD124 (antibody, V domains shown) VH: EVQLQQSGPELVKPGASVKISCKASGYTFTDHYMNWVKQSHGKSLEWIGDINPNNGGTSYNQKFKGKATLTVDKSSSTAYMELRSLTSGDSAVYYCTREGASFAFWGQGTLVTVSA VL: DVLMTQTPLSLPVSLGDQASISCRSSQSIVHSNGDTYLEWYLQKPGQSPKLLIYKVSNRFSGVPDRFSGSGSGTDFTLKISRVEAEDLGVYYCFQGSHVPLTFGAGTKLELK is less than 0.5 nM
false (0)

Find out if reported Kd for KCD002 (antibody, V domains shown) VH: EVKLVESEGGLVQPGSSMKLSCTASGFTFSDYYMAWVRQVPEKGLEWVGNINYDGSSTYYLDSLKSRFIISRDSAKNILYLQMSSLKSEDTATYFCARGEDFYLYAMDYWGQGTSVTVSS VL: DIQMTQSPASLSASVGETVTITCRASENIHSYLAWYQQKQGKSPQLIVYNTKTLAEGVPSRFSGSGSGTQFSLKINSLQPEDFGSYYCQHHYGIPPTFGGGTKLEIK is less than 0.5 nM
true (1)

***
Find out if reported Kd for KCD122 (antibody, V domains shown) VH: EVQLQQSGPELVKPGASVKISCKASGYTFTDYYKNWMRQRHGESLEWIGDINPNNGDANYNQKFKGKATLTVDKSSSTAYMELRSLTSEDSAVYFCAREGPSFAYWGHGTLVTVSA VL: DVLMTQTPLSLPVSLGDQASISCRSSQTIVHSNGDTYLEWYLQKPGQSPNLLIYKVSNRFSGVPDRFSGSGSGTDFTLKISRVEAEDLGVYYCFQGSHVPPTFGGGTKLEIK is less than 0.5 nM
false (0)
